# Experimental system: BuChE (Homo sapiens, UniProt P06276)
# Sequence (P06276 29-602): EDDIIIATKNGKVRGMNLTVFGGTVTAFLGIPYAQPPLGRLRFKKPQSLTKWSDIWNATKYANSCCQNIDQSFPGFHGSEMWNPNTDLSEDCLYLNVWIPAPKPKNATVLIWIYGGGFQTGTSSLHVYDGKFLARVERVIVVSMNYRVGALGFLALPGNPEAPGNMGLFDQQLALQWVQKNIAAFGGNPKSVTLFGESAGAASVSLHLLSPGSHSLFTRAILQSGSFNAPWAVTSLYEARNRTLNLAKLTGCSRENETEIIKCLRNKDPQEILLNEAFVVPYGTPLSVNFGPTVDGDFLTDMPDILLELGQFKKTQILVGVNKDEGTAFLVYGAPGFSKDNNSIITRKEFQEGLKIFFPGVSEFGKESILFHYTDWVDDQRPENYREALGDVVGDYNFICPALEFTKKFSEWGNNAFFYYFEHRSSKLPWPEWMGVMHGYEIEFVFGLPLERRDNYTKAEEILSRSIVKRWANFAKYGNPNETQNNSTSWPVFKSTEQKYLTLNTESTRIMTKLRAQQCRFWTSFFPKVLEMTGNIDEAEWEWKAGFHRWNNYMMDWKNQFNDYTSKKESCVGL
# Measurement description: biochemical
# Assay type: biochemical
# Condition: read-out: IC50BuChE
# Description: The inhibition of AChE and BChE was determined using a method described earlier. Briefly, the stock solutions (1 mg/mL) of test analogues were prepared using DMSO. […] The absorbance was measured using a microplate reader at a 410 nm wavelength against the blank reading containing 10μL DMSO instead of the test compound (the solution contained 5% DMSO and 95% water). % Inhibition = (Absorbance of control—Absorbance of compound)/Absorbance of control × 100
Listed compounds paired with reported pIC50
Please treat pIC50 as minus the base-10 logarithm of the molar concentration.

Compound	pIC50
Cc1ccc(-c2csc(N/N=C(/CSc3nc4ccccc4[nH]3)c3ccc(Cl)c(Cl)c3)n2)cc1 [compound 19]	5.89
Cc1ccc(/C(CSc2nc3ccccc3[nH]2)=N\Nc2nc(-c3ccc(C)cc3)cs2)cc1 [compound 24]	4.85
COc1cccc(-c2csc(N/N=C(/CSc3nc4ccccc4[nH]3)c3ccc(Cl)c(Cl)c3)n2)c1 [compound 20]	5.72
Clc1ccc(/C(CSc2nc3ccccc3[nH]2)=N\Nc2nc(-c3ccc(Br)cc3)cs2)cc1Cl [compound 23]	5.17
O=[N+]([O-])c1cc(O)c(Cl)cc1-c1csc(N/N=C(/CSc2nc3ccccc3[nH]2)c2ccccc2O)n1 [compound 2]	5.49
Oc1ccc(-c2csc(N/N=C(/CSc3nc4ccccc4[nH]3)c3ccccc3)n2)cc1 [compound 3]	5.74

Data request, read-out pIC50, for COc1ccccc1-c1csc(N/N=C(/CSc2nc3ccccc3[nH]2)c2ccc(Cl)c(Cl)c2)n1 [compound 22] 6.15

Sourced from paper PMC9504419
